Provenance of the data: patent US20260151403A1

ASSAY TARGET: [NEK7]-[compound of formula (I)]-[CRBN/DDB1] complex (Homo sapiens, UniProt Q8TDX7+Q96SW2)
Sequence (Q8TDX7 whole entry): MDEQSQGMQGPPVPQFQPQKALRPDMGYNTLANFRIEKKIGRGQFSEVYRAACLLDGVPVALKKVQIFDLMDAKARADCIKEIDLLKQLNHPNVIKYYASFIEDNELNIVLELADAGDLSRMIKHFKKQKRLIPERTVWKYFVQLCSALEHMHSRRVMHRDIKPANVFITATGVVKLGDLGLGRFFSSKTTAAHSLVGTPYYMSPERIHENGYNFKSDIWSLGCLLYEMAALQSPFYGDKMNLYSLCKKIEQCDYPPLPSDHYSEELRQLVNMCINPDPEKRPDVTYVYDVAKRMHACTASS
Sequence (Q96SW2 whole entry): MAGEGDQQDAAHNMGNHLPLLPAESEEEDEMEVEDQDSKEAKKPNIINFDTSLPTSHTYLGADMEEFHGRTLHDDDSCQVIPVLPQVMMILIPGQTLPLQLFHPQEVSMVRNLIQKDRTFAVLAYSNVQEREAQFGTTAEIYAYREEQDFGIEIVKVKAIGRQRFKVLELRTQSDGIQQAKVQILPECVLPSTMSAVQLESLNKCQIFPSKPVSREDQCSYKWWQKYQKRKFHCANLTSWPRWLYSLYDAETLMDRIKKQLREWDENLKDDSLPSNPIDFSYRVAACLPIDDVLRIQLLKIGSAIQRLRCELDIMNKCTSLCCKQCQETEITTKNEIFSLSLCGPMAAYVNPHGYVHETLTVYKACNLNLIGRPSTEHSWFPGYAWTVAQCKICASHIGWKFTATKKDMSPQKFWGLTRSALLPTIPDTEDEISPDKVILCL
Sequence (Q16531 whole entry partner): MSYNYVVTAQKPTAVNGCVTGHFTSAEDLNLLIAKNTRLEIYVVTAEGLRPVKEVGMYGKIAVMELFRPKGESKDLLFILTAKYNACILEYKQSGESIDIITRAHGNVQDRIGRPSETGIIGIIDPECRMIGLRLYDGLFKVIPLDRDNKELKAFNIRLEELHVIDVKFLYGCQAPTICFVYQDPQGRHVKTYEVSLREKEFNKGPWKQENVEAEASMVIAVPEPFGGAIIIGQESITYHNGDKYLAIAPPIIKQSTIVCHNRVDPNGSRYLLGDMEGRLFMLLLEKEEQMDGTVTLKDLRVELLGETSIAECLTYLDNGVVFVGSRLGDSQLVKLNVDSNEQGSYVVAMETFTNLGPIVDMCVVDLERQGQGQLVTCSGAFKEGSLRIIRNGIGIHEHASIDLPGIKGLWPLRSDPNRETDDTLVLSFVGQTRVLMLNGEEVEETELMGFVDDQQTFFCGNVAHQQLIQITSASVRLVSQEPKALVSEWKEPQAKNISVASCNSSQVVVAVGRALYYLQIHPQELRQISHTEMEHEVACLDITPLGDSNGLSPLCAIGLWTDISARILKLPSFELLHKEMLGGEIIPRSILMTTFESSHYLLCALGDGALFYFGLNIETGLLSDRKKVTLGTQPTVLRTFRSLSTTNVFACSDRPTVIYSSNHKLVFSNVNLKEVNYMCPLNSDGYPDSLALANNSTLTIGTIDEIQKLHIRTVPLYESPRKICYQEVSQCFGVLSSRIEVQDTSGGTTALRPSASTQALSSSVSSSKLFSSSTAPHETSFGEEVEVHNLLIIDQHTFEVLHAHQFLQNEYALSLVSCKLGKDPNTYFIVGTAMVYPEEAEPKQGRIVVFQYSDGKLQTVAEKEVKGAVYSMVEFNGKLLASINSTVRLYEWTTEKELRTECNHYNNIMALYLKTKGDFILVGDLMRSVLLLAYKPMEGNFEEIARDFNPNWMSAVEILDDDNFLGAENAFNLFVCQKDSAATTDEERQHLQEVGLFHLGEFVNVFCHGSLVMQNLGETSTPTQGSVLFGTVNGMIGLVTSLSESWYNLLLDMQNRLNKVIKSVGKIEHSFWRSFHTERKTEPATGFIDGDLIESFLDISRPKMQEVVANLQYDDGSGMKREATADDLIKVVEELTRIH
ASSAY METHOD TEXT: HTRF ternary complex assay
Format: binding
TEST PARAMETERS: dose-response, 180 min at 25° C.; read-out: HTRF ternary complex Average pEC50 by molecule (converted)
TEST READOUT: EC50

Sample records with EC50:
{"columns": ["COMPOUND", "ASSAY TARGET", "EC50"],
 "data": [
  ["O=C1CCC(N2Cc3cc(C4CCCC(=O)N4)ccc3C2=O)C(=O)N1 (stereo not drawn) [Compound 42]", "[NEK7]-[compound of formula (I)]-[CRBN/DDB1] complex (Homo sapiens, UniProt Q8TDX7+Q96SW2)", "> 3.16 µM"],
  ["CN1CCNC(c2ccc3c(c2)CN(C2CCC(=O)NC2=O)C3=O)C1 (stereo not drawn) [Compound 67]", "[NEK7]-[compound of formula (I)]-[CRBN/DDB1] complex (Homo sapiens, UniProt Q8TDX7+Q96SW2)", "> 3.16 µM"]
]}

Next compound, please.
Please report the measured EC50 for O=C1CCC(N2C(=O)c3ccc(-c4ccccn4)c4cccc2c34)C(=O)N1 (stereo not drawn) [23(2)] tested on [NEK7]-[compound of formula (I)]-[CRBN/DDB1] complex (Homo sapiens, UniProt Q8TDX7+Q96SW2).
< 0.1 µM
